Could you please report measured IC50 for the items listed next?
tested on: T1, recombinant human Claudin 18.2 protein (GenScript, Z03504) (human, UniProt P56856-2 1-261, limits assumed)
T1 construct: Bought recombinant protein
test summary: competition ELISA on coated recombinant human Claudin 18.2; competitor biotinylated IMAB362 (0.72 µg/ml)
Answers are plain numbers, in nM.

AHP29153 (antibody, V domains shown) VH: QLQQVESGGGLVQPGGSLRLSCAASRNIGILSTMGWYRQAPGKQRELVATITRGGSTNYGEFVKGRFTISRDNAKNTVYLQMNSLKPEDTAVYYCNVDESWLGTQSYWGRGTTVTVSS VL: QSVLTQPASVSGSPGQSITISCTGTSSDVGGYKYVSWYQQPPGKAPKLIIYEVTKRPSGVPDRFSGSKSGNTASLTVSGLQAEDEADYYCLSYAGSNNVFGTGTKLTVL | 0.323
AHP32982 (antibody, V domains shown) VH: QVQLVQSGGGLVQPGGSLRLSCAASRNIGILSTMGWYRQAPGKQRELVATITRGGSTNYGEFVKGRFTISRDNAKNTVYLQMNSLKPEDTAVYYCNVDESWLGTQSYWGRGPLVTVSS VL: DIVMTQSPSSVSASVGDRVTITCRASQGISSWLAWYQQKPGKAPKLLIYAASSLQSGVPSRFSGSGSGTDFTLTISSLQPEDFATYYCQQANSFPLTFGGGTKVEIK | 0.491

Inquiry: For the binder AHP32913 (antibody, V domains shown) VH: QVQLMQSGGGLVQPGGSLRLSCAASRNIGILSTMGWYRQAPGKQRELVATITRGGSTNYGEFVKGRFTISRDNAKNTVYLQMNSLKPEDTAVYYCNVDESWLGTQSYWGRGTQVTVSS VL: QAVVTQEPSLTVSPGGTVTLTCGSSTGPVTSGHYPHWYQQKPGQAPKTLIFDTSHKHPWTPAQFSGSLLGGKAALTLSGAHPEDEAEYYCLLSYSGVRVFGGGTQLIIL , give its measured IC50 value.
Reply text: 0.337
